These data points were gathered from ChEMBL document CHEMBL1141218.

Molecular target: Norepinephrine transporter (Rattus norvegicus)
Sequence (Q9WTR4 whole entry): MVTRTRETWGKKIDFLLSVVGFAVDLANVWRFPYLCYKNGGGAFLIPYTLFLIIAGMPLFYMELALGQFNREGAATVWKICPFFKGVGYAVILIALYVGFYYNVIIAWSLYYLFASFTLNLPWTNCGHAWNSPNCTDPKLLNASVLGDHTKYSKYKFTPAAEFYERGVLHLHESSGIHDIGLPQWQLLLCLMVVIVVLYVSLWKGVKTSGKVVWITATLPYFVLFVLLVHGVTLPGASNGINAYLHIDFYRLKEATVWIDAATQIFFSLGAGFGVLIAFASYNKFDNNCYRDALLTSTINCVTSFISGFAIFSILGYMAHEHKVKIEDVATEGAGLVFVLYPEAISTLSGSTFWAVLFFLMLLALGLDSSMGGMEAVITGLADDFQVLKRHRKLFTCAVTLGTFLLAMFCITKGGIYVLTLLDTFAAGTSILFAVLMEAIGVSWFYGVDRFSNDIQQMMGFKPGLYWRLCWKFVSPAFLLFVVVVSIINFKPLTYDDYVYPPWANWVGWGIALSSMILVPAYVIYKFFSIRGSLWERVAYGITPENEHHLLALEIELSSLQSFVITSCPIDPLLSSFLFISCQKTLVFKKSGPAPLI
Assay: Ability to inhibit [3H]NE uptake through NET in rat synaptosomes
Task for the reader: assign each of the following molecules its reported Ki.
Please state the figure in nM; there is no need to write the unit.

Asked: Param item = `CN1CC[C@H](c2ccc(Cl)cc2)[C@H](CSCCO)C1` ; retrieve measured Ki.
Given back: 26

Asked: Subsequent entry: `CN1CC[C@@H](c2ccc(Cl)cc2)[C@H](CSCC(=O)N2CCCCC2)C1`
Given back: 82

Asked: Subsequent entry: `CC(C)NC(=O)CSC[C@H]1CN(C)CC[C@H]1c1ccc(Cl)cc1`
Given back: 11

====

Target: Sodium-dependent serotonin transporter (Rattus norvegicus)
Sequence (P31652 whole entry): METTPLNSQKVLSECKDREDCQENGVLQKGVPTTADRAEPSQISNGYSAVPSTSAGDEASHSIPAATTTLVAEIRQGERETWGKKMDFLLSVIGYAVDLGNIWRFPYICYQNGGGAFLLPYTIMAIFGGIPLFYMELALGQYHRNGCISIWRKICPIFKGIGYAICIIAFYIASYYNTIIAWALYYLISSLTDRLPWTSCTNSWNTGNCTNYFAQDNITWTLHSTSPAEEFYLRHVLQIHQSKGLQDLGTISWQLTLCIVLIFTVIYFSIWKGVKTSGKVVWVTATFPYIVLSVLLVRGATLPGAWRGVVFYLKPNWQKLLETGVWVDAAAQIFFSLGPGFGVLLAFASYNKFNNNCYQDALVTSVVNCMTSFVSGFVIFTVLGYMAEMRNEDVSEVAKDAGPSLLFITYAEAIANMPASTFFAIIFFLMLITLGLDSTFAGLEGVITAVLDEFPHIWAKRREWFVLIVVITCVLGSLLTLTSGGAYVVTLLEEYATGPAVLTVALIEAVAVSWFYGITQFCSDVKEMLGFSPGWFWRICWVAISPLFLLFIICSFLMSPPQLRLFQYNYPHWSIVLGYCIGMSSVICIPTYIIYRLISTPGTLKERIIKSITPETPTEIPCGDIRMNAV
Test: Ability to inhibit [3H]5-HT uptake through SERT in rat synaptosomes
ASSAY READOUT: pKi
Please express pKi as -log10 of the molar concentration.

Asked: Param item = `COC(=O)CSC[C@@H]1CN(C)CC[C@@H]1c1ccc(Cl)cc1` ; retrieve measured pKi.
Given back: 6.74

Asked: Subsequent entry: `COC(=O)[C@H]1CN(C)CC[C@H]1c1ccc(Cl)cc1`
Given back: 7.25

Asked: Subsequent entry: `CNC(=O)CSC[C@@H]1CN(C)CC[C@H]1c1ccc(Cl)cc1`
Given back: 6.94

Asked: Subsequent entry: `CN1CC[C@@H](c2ccc(Cl)cc2)[C@@H](CSCC(=O)Nc2cccc3ccccc23)C1`
Given back: 6.97

Asked: Subsequent entry: `CN1CC[C@@H](c2ccc(Cl)cc2)[C@@H](CSCCOC(=O)c2ccccc2)C1`
Given back: 6.57
